Recorded inhibition for the following molecules
assay: growth suppression of yeast trafficking mutant, preliminary HTS, modulators of trafficking downstream of Golgi apparatus project, 1536-format plate, OD 615 nm (AID 637); conditions: yeast transport mutant growth, absorbance 615 nm, 18 h; stronger effect = higher value
Active and inactive are the calls of the source. Cut-off read from the data, not from the text of the source: active = inhibition above about 30%; inactive = the rest.
TEST READOUT: inhibition

{"MOLECULE": "CCN(CC(=O)Nc1ccc2c(c1)CCC2)Cc1nc2ccccc2c(=O)[nH]1", "RECORDED VALUE": "4.73% (inactive)"}
{"MOLECULE": "O=C(O)/C=C/c1ccc(O)c(O)c1", "RECORDED VALUE": "1% (inactive)"}
{"MOLECULE": "Cc1onc(-c2ccccc2)c1C(=O)N1CCOCC1", "RECORDED VALUE": "-2.83% (inactive)"}
{"MOLECULE": "CCOC(=O)CNC(=O)CSc1nc(N(C)C)nc(N2CCOCC2)n1", "RECORDED VALUE": "6.45% (inactive)"}
{"MOLECULE": "CCC1(C(=O)OC)NC(c2cccc(F)c2)C2C(=O)N(C)C(=O)C21 (stereo unspecified)", "RECORDED VALUE": "0.73% (inactive)"}
{"MOLECULE": "Nc1ccc(Sc2nnnn2-c2ccccc2)c(Cl)c1", "RECORDED VALUE": "-2.06% (inactive)"}

* * *

test: reversal of MRP1-mediated doxorubicin resistance, pilot screen, H69AR cells, doxorubicin co-treatment (AID 601); conditions: H69AR cells + 2 uM doxorubicin, CellTiter-Glo, 72 h; measured here: viability with 2 uM doxorubicin; at 10 µM; stronger effect = lower value
Hi! Just check whether viability is below 90%. Below gives label 1, equal or above gives label 0.

{"MOLECULE": "Cc1cc(NCCN2CCOCC2)n2nc(C)c(-c3ccccc3)c2n1", "CLASS LABEL": "label 1"}
{"MOLECULE": "COc1cc(S(=O)(=O)NC2CCCCC2C)ccc1Cl (stereo unspecified)", "CLASS LABEL": "label 0"}
{"MOLECULE": "N#CC1=C(N)n2c(s/c(=C\\c3ccco3)c2=O)=C(C#N)C1c1ccco1 (stereo unspecified)", "CLASS LABEL": "label 1"}
{"MOLECULE": "CCOC(=O)N1CCC(NC(=O)Cn2ncc3c4ccccc4n(C)c3c2=O)CC1", "CLASS LABEL": "label 0"}
{"MOLECULE": "N#CC1=C(N)N(c2ccccc2)C(c2ccco2)C1(C#N)C#N (stereo unspecified)", "CLASS LABEL": "label 1"}

* * *

Each entry below lists one item and its recorded differential viability (reversal) value.
test: reversal of MRP1-mediated doxorubicin resistance, pilot screen, H69AR cells, doxorubicin co-treatment (AID 601); conditions: H69AR cells + 2 uM doxorubicin, CellTiter-Glo, 72 h; at 10 µM; stronger effect = higher value

{"COMPOUND": "CCOC(=O)Nc1ccc2c(c1)N(C(=O)CCN1CCOCC1)c1ccccc1S2", "differential viability (reversal) (%)": -11.3}
{"COMPOUND": "O=C(Nc1ccc(Cl)c(C(F)(F)F)c1)N1CCCC(O)C1 (configuration not stated)", "differential viability (reversal) (%)": 20.9}
{"COMPOUND": "CCNC(=O)C1CC(=O)N(Cc2ccc3c(c2)OCO3)C(=Nc2ccc(OCC)cc2)S1 (configuration not stated)", "differential viability (reversal) (%)": 2.95}
{"COMPOUND": "Cc1cc(N2CCN(C)CC2)nc(N2CCOCC2)n1", "differential viability (reversal) (%)": 4.88}
{"COMPOUND": "CCO/C([O-])=N/c1c[n+](N2CCOCC2)no1", "differential viability (reversal) (%)": -3.3}
{"COMPOUND": "Cc1cc(C(=O)Nc2cccnc2)no1", "differential viability (reversal) (%)": 0.295}
{"COMPOUND": "CC(C)Cn1c(=O)c(C(=O)NCc2ccccn2)c(O)c2ccccc21", "differential viability (reversal) (%)": -15}
{"COMPOUND": "NC(=O)OCC(COC(N)=O)c1ccccc1", "differential viability (reversal) (%)": -6.82}
{"COMPOUND": "CCOC(=O)N1CCN(CC(=O)Nc2cc(C)nn2-c2nc3ccccc3s2)CC1", "differential viability (reversal) (%)": -1.56}
{"COMPOUND": "[O-][n+]1onc2c1CCc1nnc(-c3ccccc3)cc1-2", "differential viability (reversal) (%)": 43.7}
{"COMPOUND": "O=C(Sc1nnnn1C1CCCCC1)c1cccs1", "differential viability (reversal) (%)": 6.21}
{"COMPOUND": "N#Cc1nc(-c2cccs2)oc1NCc1ccc(Cl)cc1", "differential viability (reversal) (%)": -14.1}
